These entries and their values trace back to ChEMBL document CHEMBL4513216.

Tested on: Plasmodium berghei
Assay: Screen against P. berghei liver stage (PbLuc), transformed with Luciferase, at 10uM
Format: functional, HepG2
Details: tested at 10 uM
Hit rate of the full screen: of about 69,000 compounds, about 8,600 (12%) showed an effect of 50% or more. Many of the other results were omitted from the sample, so strong results are more common in it than they were.
result_type: INHIBITION (%)
Kindly provide the numeric value in % only, without the unit symbol.

{"columns": ["compound", "value"],
 "data": [
  ["CC(C)n1cnnc1CN(C)C(=O)c1ccccc1N1CCOCC1", 7.92],
  ["CC(NCC1(N(C)C)CCOCC1)c1ccc(SC(F)F)cc1 (centres undefined)", 40.5],
  ["COc1cccc(CN2C[C@@H]3COC[C@]3(CN3CCOCC3)C2)c1", 29.9],
  ["Cc1nc(CO[C@@H]2CN(Cc3ccc(F)cc3)[C@@H]3COC[C@@H]32)cs1", 23.6],
  ["CCCC(=O)NC1CCN(c2ccccc2S(=O)(=O)CC)CC1", 58.5],
  ["CN1CC(Nc2ccc(Br)cc2C#N)CCC1=O (centres undefined)", 58.9],
  ["c1cc(COC[C@]23COC[C@H]2CN(Cc2ccncc2)C3)ccn1", 43.9],
  ["COc1c(CNCc2ccc(C(=O)N(C)C)cc2)c(C)nn1C", 56.3]
]}

# input Give a short answer stating reported INHIBITION for CC(C)n1cc(CN(Cc2ccsc2)CC2CCCO2)cn1 (centres undefined) .
# output 12.9

# input # return recorded INHIBITION for entry CC(=O)N1CCCC1c1nnn2cc(NCc3cccnc3)ccc12 (centres undefined)
# output -15.3

# input Please give measured INHIBITION of the following entry: CCS(=O)(=O)c1ccccc1N1CCC(NC(C)=O)CC1
# output 6

# input Please report the measured INHIBITION for NC(=O)NC(=O)C(c1ccccc1)N1CCN(Cc2ccc(Cl)s2)CC1 (centres undefined)
# output 50.4

# input Quickly give me recorded INHIBITION for Cc1nc(CO[C@H]2CN(C(=O)c3cccn3C)[C@@H]3COC[C@H]23)cs1
# output 38.5

# input Give reported INHIBITION value for Cc1nc(C(=O)N2CCCC2c2noc(C3CC3)n2)c[nH]1 (centres undefined)
# output 31.8

# input Note INHIBITION for the compound shown: COc1ccccc1CN1C[C@@H]2COC[C@]2(COc2cccnc2)C1
# output -8.94

# input Tell me measured INHIBITION for CC(C)CCC(=O)N1CC[C@@H]2[C@H](CC1)N(S(C)(=O)=O)CCS2(=O)=O please.
# output -31.9

# input Quote INHIBITION reported for O=C(c1n[nH]cc1Cl)N1CCOCC1 please.
# output 39.1

# input Give me measured INHIBITION, please, for this compound: CC(=O)N1CCC(Nc2ccc(Br)cc2C#N)C1 (centres undefined)
# output 7.39

# input Recall and state the measured INHIBITION for COc1ccc(CN2C[C@@H]3COC[C@]3(COc3cccnc3)C2)cc1 .
# output 24

# input Supply INHIBITION value. Item: CCS(=O)(=O)c1ccc(N2CCC(NC(=O)CC3CCCC3)CC2)cc1
# output 60.1

# input // fetch INHIBITION given entry CN1CCN(CCC(F)(F)C(F)F)CC12CCNC(=O)CC2 (centres undefined)
# output 49.9

# input Give me measured INHIBITION, please, for this compound: Cn1nccc1-c1nc2c(cc1C(=O)O)CCN(CC1CC1)CC2
# output -10.3

# input Respond only with INHIBITION recorded for COc1cccc(CN2C[C@@H]3COC[C@]3(COCc3ccccn3)C2)c1
# output 53.2

# input Tell us which INHIBITION value is on record for Nc1nnnn1NCc1cccc(Cl)c1Cl
# output 61.5
